Items are presented alongside their recorded MIC.
system: S. epidermidis Q033; experiment: Minimum Inhibitory Concentration (MIC), agar dilution, standard strains; type: cell-based; conditions: Staphylococcus epidermidis, Q033; Mueller-Hinton agar, double dilution, 37° C. for 20 hours; read-out: Minimum Inhibitory Concentration (MIC), S. epidermidis Q033
Readout Type: MIC (µg/mL)

Smiles Repr: Nc1cc(S/C=C/C2=C(C(=O)O)N3C(=O)[C@@H](NC(=O)C(=NO)c4nc(N)sc4Cl)[C@H]3SC2)nc(O)n1
Reading: 0.063
--
Smiles Repr: Nc1nc(O)cc(S/C=C/C2=C(C(=O)O)N3C(=O)[C@@H](NC(=O)C(=NO)c4nc(N)sc4Cl)[C@H]3SC2)n1
Reading: 0.063
--
Smiles Repr: Nc1nc(C(=NO)C(=O)N[C@@H]2C(=O)N3C(C(=O)O)=C(/C=C/Sc4nc(N)c5cn[nH]c5n4)CS[C@H]23)c(Cl)s1
Reading: 0.031
--
Smiles Repr: Nc1cc(S/C=C/C2=C(C(=O)O)N3C(=O)[C@@H](NC(=O)C(=NOC4CCCC4)c4nc(N)sc4Cl)[C@H]3SC2)nc(N)n1
Reading: 0.063
--
Smiles Repr: NCCSc1nccc(S/C=C/C2=C(C(=O)O)N3C(=O)[C@@H](NC(=O)C(=NO)c4nc(N)sc4Cl)[C@H]3SC2)n1
Reading: 0.13
--
Smiles Repr: Nc1cc(S/C=C/C2=C(C(=O)O)N3C(=O)[C@@H](NC(=O)C(=NO)c4nc(N)sc4Cl)[C@H]3SC2)nc(N)n1
Reading: 0.063
